target_of_assay: SARS-CoV-2 PL^pro (Severe acute respiratory syndrome coronavirus 2, UniProt P0DTD1)
test_summary: PL^pro enzymatic inhibition assay (FRET-based, Z-RLRGG-AMC substrate)
Type: biochemical
test_parameters: Table 1 thiazole series; enzymatic inhibition assay, 25 °C, pH 7.5; uncertainty approx. 1.8-fold of Kd
Recorded Kd, one value per entry.

compound	target_of_assay	Kd
COC(=O)C=C1SC(N(CCC(=O)O)c2cccc3ccccc23)=NC1=O [Compound 17]	SARS-CoV-2 PL^pro (Severe acute respiratory syndrome coronavirus 2, UniProt P0DTD1)	> 200 µM
Cc1ccc(N(CCC(=O)O)c2nc(CNc3ccccc3)cs2)cc1 [Compound 26]	SARS-CoV-2 PL^pro (Severe acute respiratory syndrome coronavirus 2, UniProt P0DTD1)	16 µM
Cc1nc(N(CCC(=O)O)c2cccc3ccccc23)sc1C(=O)/C=C/c1cccc2ccccc12 [Compound 22]	SARS-CoV-2 PL^pro (Severe acute respiratory syndrome coronavirus 2, UniProt P0DTD1)	5.2 µM
Cc1ccc(N(CCC(=O)O)c2nc(-c3ccc(C#N)cc3)c(C=O)s2)cc1 [Compound 29]	SARS-CoV-2 PL^pro (Severe acute respiratory syndrome coronavirus 2, UniProt P0DTD1)	> 200 µM
O=C(O)CCN(C1=NC(=O)C(=Cc2ccc(Cl)cc2)S1)c1cccc2ccccc12 [Compound 13b]	SARS-CoV-2 PL^pro (Severe acute respiratory syndrome coronavirus 2, UniProt P0DTD1)	≥ 50 µM
C/C(=N/N=C(/C)c1sc(N(CCC(=O)O)c2cccc3ccccc23)nc1C)c1sc(N(CCC(=O)O)c2cccc3ccccc23)nc1C [Compound 24]	SARS-CoV-2 PL^pro (Severe acute respiratory syndrome coronavirus 2, UniProt P0DTD1)	8 µM
O=C(O)CCN(C1=NC(=O)C(=Cc2ccccc2O)S1)c1cccc2ccccc12 [Compound 15]	SARS-CoV-2 PL^pro (Severe acute respiratory syndrome coronavirus 2, UniProt P0DTD1)	≥ 50 µM
O=C(O)CCN(c1nc(-c2ccc(F)cc2)cs1)c1cccc2ccccc12 [Compound 6c]	SARS-CoV-2 PL^pro (Severe acute respiratory syndrome coronavirus 2, UniProt P0DTD1)	≥ 50 µM
